- Assay Remarks: Primary qHTS for delayed death inhibitors of the malarial parasite plastid, 48 hour incubation
- Conditions Used: P. falciparum luciferase growth in erythrocytes; series mostly up to 28.7 µM
Out of some 310,000 compounds screened, about 18,000 (5.8%) were called active. About 22% were inconclusive and are not listed. Calls follow the shape of the dose curve; as a rule, active = well fitted inhibition curve with a large enough effect; inconclusive = small, poorly fitted or top-dose-only effect, or another doubt; inactive = no such curve, though single readings can be large or run the other way. The entries come from a sample that favours actives as a whole.
One label from this list, please: active, inactive

Study these solved cases before continuing.
Cpd Smiles | Assigned Class
CCOC(=O)c1nnn2c1nc(N1CCN(c3ccccc3)CC1)c1ccccc12 | active
CCOC(=O)c1nnn2c3ccccc3c(=O)n(C)c12 | inactive
O=C(Nc1ccc(C(=O)N2CCCCC2)cc1)c1cccc([N+](=O)[O-])c1 | inactive
Cc1c(C)n2c(SCC(=O)NC3CCCC3)nnc2[nH]c1=O | inactive
CCOc1ccc(NC(=S)N2CCC(NC(=O)c3ccccc3)CC2)cc1 | inactive
COc1cc(NS(=O)(=O)c2ccc(NC(=O)c3ccc([N+](=O)[O-])cc3)cc2)ncn1 | inactive
CCOC(=O)/C(C#N)=C/c1ccc(N2CCN(Cc3ccccc3)CC2)cc1 | inactive
COc1ccccc1OCC(=O)OCc1cc(-c2ccco2)on1 | inactive
Cn1ccc(=Nc2ccc(NC(=O)c3ccc(N=c4ccn(C)c5ccc([N+](=O)[O-])cc45)cc3)cc2)cc1 | active

Call for entry CC(C)c1ccc(NC(=O)COC(=O)c2ccc(CN3CCCC3=O)cc2)cc1 :
inactive

---

- Assay Remarks: Primary qHTS for delayed death inhibitors of the malarial parasite plastid, 48 hour incubation
- Conditions Used: P. falciparum luciferase growth in erythrocytes; series mostly up to 28.7 µM
About 18,000 (5.8%) of roughly 310,000 compounds were called active. Roughly 22% stayed inconclusive and do not appear here. Calls come from the whole dose curve; as a rule, active = well fitted inhibition curve with a large enough effect; inconclusive = small, poorly fitted or top-dose-only effect, or another doubt; inactive = no such curve, though single readings can be large or run the other way. Many of the other results were omitted from the sample, so actives are more common in it than they were.
One label from this list, please: active, inactive

Study these solved cases before continuing.
Compound | Assigned Class
O=C(NCCCO)c1cc2c([nH]c3ccccc32)c(-c2ccc(F)cc2)n1 | active
Cc1ccc(N2C(=O)C3N=NN(CC(=O)N4N=C(c5cccc6ccccc56)CC4c4ccccc4)C3C2=O)cc1 (stereo not given) | active
Cc1ccc(N2C(=O)CC(Nc3cccc4ccccc34)C2=O)cc1 (stereo not given) | inactive

Call for entry O=C(NCC1CCCO1)c1cc2c([nH]c3ccccc32)c(-c2ccc(F)cc2)n1 (stereo not given) :
active

Call for entry O=C(NCC1CCCO1)c1ccc2ccccc2n1 (stereo not given) :
inactive

---

- Assay Remarks: Primary qHTS for delayed death inhibitors of the malarial parasite plastid, 48 hour incubation
- Conditions Used: P. falciparum luciferase growth in erythrocytes; series mostly up to 28.7 µM
Out of some 310,000 compounds screened, about 18,000 (5.8%) were called active. About 22% were inconclusive and are not listed. Calls follow the shape of the dose curve; as a rule, active = well fitted inhibition curve with a large enough effect; inconclusive = small, poorly fitted or top-dose-only effect, or another doubt; inactive = no such curve, though single readings can be large or run the other way. The sample holds actives, similar compounds and a random draw of the others, so the mix is not that of the screen.
One label from this list, please: yes for active, no for inactive

Study these solved cases before continuing.
Compound | Assigned Class
CC(=O)c1c(C)n(-c2ccc(C)cc2)c2ccc(O)cc12 | no
Cc1cc(C(=O)Nc2nnc(C3CC3)s2)c(C)s1 | no

Call for entry Cn1c(CCNS(=O)(=O)c2ccc(F)cc2)nnc1SCc1cccnc1 :
no

Call for entry Cc1cc(Cl)c2oc(C(=O)N3CCC(O)(c4ccccc4)CC3)c(C)c2c1 :
no

Call for entry CN1CCN(S(=O)(=O)c2ccc(N3CCN(c4ccccc4O)CC3)c([N+](=O)[O-])c2)CC1 :
yes

Call for entry CCOC(=O)c1c(C)oc2ccc(OCC(=O)N(CC)CC)cc12 :
no

Call for entry CCCS(=O)(=O)Nc1ccc(-c2cn3c(n2)SCC3)cc1 :
no

Call for entry CCOC(=O)C1=C(c2ccccc2)NC(=S)NC1c1ccc(Cl)cc1 (stereo not drawn) :
no

Call for entry O=C(COC(=O)C1CC2CCCC(C1)C2=O)NC(=O)c1ccccc1 (stereo not drawn) :
no

Call for entry O=C(Nc1ncccc1O)c1ccc(S(=O)(=O)N2CCCCCC2)cc1 :
yes

Call for entry CC(=O)c1c(C)n(-c2ccc(N(C)C)cc2)c2ccc(OCC(N)=O)cc12 :
yes

Call for entry CS(=O)(=O)N1CCN(C(=O)c2cc3ccccc3oc2=O)CC1 :
no

Call for entry COCCCn1c2nc3ccccc3nc2c2c(=O)n(Cc3ccc(Cl)cc3)c(C)nc21 :
no

Call for entry O=C(Nc1ccc(S(=O)(=O)N2CCCCCC2)cc1)c1c(F)cccc1F :
no

Call for entry Cc1cc(Cl)c2oc(C(=O)NC(C)c3ccncn3)c(C)c2c1 (stereo not drawn) :
no

Call for entry CCOC(=O)C1=C(C)NC(=O)N(C(C)=O)C1c1ccc(Cl)cc1 (stereo not drawn) :
yes

Call for entry O=C(Nc1cccc(Cl)c1)OCc1ccccn1 :
no

Call for entry O=C(NCc1ccccc1Cl)C1CCN(c2ncnc3c2nc2n3CCCCC2)CC1 :
no

Call for entry Cc1cc2nc3c(=O)n(Cc4ccccc4)c(=O)[nH]c3nc2cc1N :
no

Call for entry COCCOC(=O)C1=C(C)NC(=O)NC1c1ccc(Cl)cc1 (stereo not drawn) :
no

Call for entry Cc1ncoc1C(=O)NCCC(c1ccccc1)c1ccccc1 :
no

Call for entry CC(Cc1ccccc1)C(=O)N(C)Cc1ccccc1 (stereo not drawn) :
no

Call for entry O=C(CC1SC(=Nc2ccccc2)N(Cc2ccccn2)C1=O)Nc1cccc(Cl)c1 (stereo not drawn) :
yes

---

- Assay Remarks: Primary qHTS for delayed death inhibitors of the malarial parasite plastid, 48 hour incubation
- Conditions Used: P. falciparum luciferase growth in erythrocytes; series mostly up to 28.7 µM
The whole screen tested about 310,000 compounds, of which about 18,000 (5.8%) were called active. Not shown: some 22% with an inconclusive outcome. The call rests on the fitted dose curve; in most records, active means well fitted inhibition curve with a large enough effect; inconclusive means small, poorly fitted or top-dose-only effect, or another doubt; inactive means no such curve, though single readings can be large or run the other way. The list comes from a sample in which actives are over-represented; it also holds close analogues and randomly drawn compounds.
One label from this list, please: Y for active, N for inactive

Molecule | Assigned Class
Cc1nnc(SCC(=O)Nc2cccc(N)c2)n1-c1ccccc1 | N
CCCCn1c(=O)c(C(C)=O)c(O)c2ccccc21 | N
COc1ccc(CNC(=O)c2cc(=O)c3c(C)cc(C)cc3o2)cc1 | N
C=CCn1c(CNS(=O)(=O)c2ccc(Br)cc2)nnc1SC | N
COc1ccc(CNCCCO)cc1OC | N

Call for entry CC(=O)Nc1ccc(/C=N/NC(=O)c2cccs2)cc1 :
N

Call for entry CC(C)c1ccc(Cc2nnc(NCCCO)[nH]c2=O)cc1 :
N

Call for entry CCOc1cc(NC(=O)c2ccccc2C(=O)O)c(OCC)cc1NC(=O)c1ccccc1F :
Y

---

- Assay Remarks: Primary qHTS for delayed death inhibitors of the malarial parasite plastid, 48 hour incubation
- Conditions Used: P. falciparum luciferase growth in erythrocytes; series mostly up to 28.7 µM
Out of some 310,000 compounds screened, about 18,000 (5.8%) were called active. Not shown: some 22% with an inconclusive outcome. Calls come from the whole dose curve; as a rule, active = well fitted inhibition curve with a large enough effect; inconclusive = small, poorly fitted or top-dose-only effect, or another doubt; inactive = no such curve, though single readings can be large or run the other way. This is one part of a sample in which actives are shown more often than they occur.
One label from this list, please: active, inactive

Study these solved cases before continuing.
Molecule | Assigned Class
O=C(NCc1cccc(Cl)c1)C1CCC(=O)N(C2CC2)C1 (stereo not given) | inactive
COc1cccc2c(N/N=C/c3ccco3)cc(C)nc12 | inactive
COc1cc(OC)c(NS(=O)(=O)c2cn(C)cn2)cc1Cl | inactive
O=C(NCCCc1ccccc1)C(=O)c1c[nH]c2ccccc12 | inactive
CCOc1ncccc1C(=O)OCC(=O)NC1CC1 | inactive
COc1ccc(S(=O)(=O)NNC(=O)Nc2ccc(C)cc2)c(OC)c1 | inactive
COc1ccc(C(=O)N2CCCN(C)CC2)c(OC)c1 | inactive
O=C(c1cccnc1NCc1ccccc1)N1CCOCC1 | inactive
O=C(O)c1ccccc1C(=O)Nc1nc(-c2ccccc2)cs1 | inactive
O=C(O)c1ccc(OCC2CCCO2)cc1 (stereo not given) | inactive

Call for entry COc1cccc(/C=N/Nc2cc(C)nc(-c3ccccc3O)n2)c1O :
active

Call for entry COc1cc(NS(=O)(=O)c2ccccc2)ccc1-n1nc(C)cc1C :
inactive

Call for entry OCCN1CCN(c2nnc(-c3ccccc3)c3ccccc23)CC1 :
inactive

Call for entry CC1CCCCC1NC(=O)NC(=O)COC(=O)C1=NN(c2ccccc2)C(=O)CC1 (stereo not given) :
inactive

Call for entry CC(=O)N1CCCc2cc(S(=O)(=O)N3CCCC(C(=O)NCc4ccc(Cl)cc4)C3)ccc21 (stereo not given) :
inactive

Call for entry COc1cccc(C(=O)NNS(=O)(=O)c2ccc(F)cc2)c1 :
inactive

Call for entry O=C(COC(=O)c1cc(=O)[nH]c2ccccc12)NCc1cccc(Cl)c1 :
inactive

Call for entry CN(Cc1ccccc1)C(=O)CSc1nc2ccccc2[nH]1 :
inactive

Call for entry Cc1n[nH]c(=O)c2c(NC(=O)COC(=O)c3ncc(Cl)c(Cl)c3Cl)oc(C)c12 :
inactive

Call for entry Cc1csc(NC(=O)CSc2nc(=O)cc(N)n2-c2ccc(F)cc2)n1 :
inactive
